B1: ATL3 (parent)
chain: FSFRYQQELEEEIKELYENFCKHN

variants of: B1; assay: protein stability index of a GFP-peptide fusion (GPS, HEK-293T) (PSI 1-6); higher = more stable; conditions: c terminus: a fixed tail appended;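 note: lentivirally expressed fusions sorted by FACS into six bins by GFP to DsRed ratio, PSI derived from sequencing read proportions per bin multiplied by bin number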
Classification field: T = protein stability index at or over 2; F = protein stability index under 2.

Solved cases (6 shown):
FSFRYQQLLEEEIKELYENFCKHN | T
FSFRYQQELEEEIKELYENFSKHN | T
FSFRYQQELREEIKELYENFCKHN | F
FSFRYQQALEEEIKELYENFCKHN | F
FSFRYQQELEEEIKELYENFGKHN | T
FSFRYQQEREEEIKELYENFCKHN | T

Problem: Evaluate FSFRYQQELLEEIKELYENFCKHN : protein stability index at minimum 2?
Solution: F

Problem: Evaluate FSFRYQWELEEEIKELYENFCKHN : protein stability index at minimum 2?
Solution: F

Values from the supplement of paper PMC10567573
